Data origin, for the record: patent US10000487B2

# IC50 annotations
Target: recombinant MNK1 (Homo sapiens (Human), UniProt Q9BUB5)
Sequence (Q9BUB5 whole entry): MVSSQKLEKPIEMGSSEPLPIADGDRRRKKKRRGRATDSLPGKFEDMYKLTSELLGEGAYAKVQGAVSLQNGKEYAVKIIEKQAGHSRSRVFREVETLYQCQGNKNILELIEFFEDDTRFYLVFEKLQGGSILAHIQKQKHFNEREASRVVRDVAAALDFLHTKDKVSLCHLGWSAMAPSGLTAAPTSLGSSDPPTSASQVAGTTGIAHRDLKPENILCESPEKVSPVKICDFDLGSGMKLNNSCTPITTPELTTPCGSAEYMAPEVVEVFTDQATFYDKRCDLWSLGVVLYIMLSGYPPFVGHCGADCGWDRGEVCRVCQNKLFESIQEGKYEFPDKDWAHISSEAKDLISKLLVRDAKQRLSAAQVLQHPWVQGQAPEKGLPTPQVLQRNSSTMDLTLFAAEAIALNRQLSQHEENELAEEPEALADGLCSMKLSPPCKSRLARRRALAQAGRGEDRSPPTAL
Assay: MNK biochemical enzymatic assay (ADP-Glo), MNK1
Details: 10 nM MNK1, 300 μM ATP
Procedure: Compounds are screened for MNK inhibition using the ADP-Glo kinase assay kit (Promega, catalogue No. V9101). […] Kinase reactions are carried out in 96-well half-area white flat-bottom polystyrene plates in a final volume of 25 μl. […] The final luminescent signal used for kinase activity readout is produced by the addition of 45 μl of Kinase Detection Reagent (ADP-Glo kit, Promega) and incubating for 40 minutes. […]
valueType: IC50

> print(dat)
                                   molecule           result
1  O=C1NC2(CCCCC2)n2c1c(Cl)cc(Nc1cncs1)c2=O [compound 5]  100 to 10000 nM
2  O=C1NC2(CCCCC2)n2c1c(Cl)cc(Nc1nncs1)c2=O [1F]  100 to 10000 nM
3  O=C1NC2(CCCCC2)n2c1c(Cl)cc(Nc1nnco1)c2=O [compound 8]  100 to 10000 nM
4  O=C1NC2(CCCCC2)n2c1c(Cl)cc(Nc1ncn[nH]1)c2=O [4F]  100 to 10000 nM
5  O=C1NC2(CCCCC2)n2c1c(Cl)cc(Nc1cn[nH]n1)c2=O [compound 9]     10 to 100 nM
6  O=C1NC2(CCCCC2)n2c1c(Cl)cc(Nc1ncns1)c2=O [2F]     10 to 100 nM
